Data origin, for the record: PubChem BioAssay AID2060604

# Test system: 379773-124-R-J2-PDC complex spheroids, viability % test/control
# TEST METHOD NOTES: Anticancer human tumor 379773-124-R-J2-PDC patient-derived endometrial carcinoma cell line growth inhibition [CLK]; active means viability on the fitted dose curve at most 10% of control; inactive means the rest
# EXPERIMENTAL CONTEXT: second compound 3.16 µM; first compound 1 µM
Outcome codes: class 1 (active), class 0 (inactive)

- Nc1ccn(C2OC(CO)C(O)C2(F)F)c(=O)n1 (configuration not stated) + CN1CCN(c2cc(C(=O)Nc3cc4cc(-c5cnn(C)c5)ccc4cn3)ccn2)CC1: class 1
- Nc1ccn(C2OC(CO)C(O)C2(F)F)c(=O)n1 (configuration not stated) + CNC(=O)c1ccc(Nc2nc(OC3CCCC3)c3c(-c4ccc5nc(C)oc5c4)c[nH]c3n2)c(OC)c1: class 1
- CC(=O)O[C@H]1C(=O)[C@@]2(C)[C@H]([C@H](OC(=O)c3ccccc3)[C@]3(O)C[C@H](OC(=O)[C@H](O)[C@@H](NC(=O)c4ccccc4)c4ccccc4)C(C)=C1C3(C)C)[C@]1(OC(C)=O)CO[C@@H]1C[C@@H]2O + CNC(=O)c1ccc(Nc2nc(OC3CCCC3)c3c(-c4ccc5nc(C)oc5c4)c[nH]c3n2)c(OC)c1: class 0
- COc1ccc([C@@H](O)c2cc(-c3ncnc4cc(N5CCOCC5)ccc34)c(F)cc2Cl)nn1 + CNC(=O)c1ccc(Nc2nc(OC3CCCC3)c3c(-c4ccc5nc(C)oc5c4)c[nH]c3n2)c(OC)c1: class 0
- C=C(F)C(=O)N1CCN(c2nc(OCC3CCCN3C)nc3c2CCN(c2cccc4cccc(Cl)c24)C3)CC1CC#N (configuration not stated) + CN1CCN(c2cc(C(=O)Nc3cc4cc(-c5cnn(C)c5)ccc4cn3)ccn2)CC1: class 1
- CCN1CCN(Cc2ccc(Nc3ncc(F)c(-c4cc(F)c5nc(C)n(C(C)C)c5c4)n3)nc2)CC1 + CN1CCN(c2cc(C(=O)Nc3cc4cc(-c5cnn(C)c5)ccc4cn3)ccn2)CC1: class 1
- C=CC(=O)N1CCN(c2nc(=O)n(-c3c(C)ccnc3C(C)C)c3nc(-c4c(O)cccc4F)c(F)cc23)C(C)C1 (configuration not stated) + CNC(=O)c1ccc(Nc2nc(OC3CCCC3)c3c(-c4ccc5nc(C)oc5c4)c[nH]c3n2)c(OC)c1: class 0

---

Entries and their viability, T/C
# System: 379773-124-R-J2-PDC complex spheroids, viability % test/control
# TEST METHOD NOTES: Anticancer human tumor 379773-124-R-J2-PDC cell line growth inhibition [CLK];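 further: compound exposure lasted seven days before the viability readout; 100% = DMSO vehicle control wells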
# EXPERIMENTAL CONTEXT: second compound 0.0316 µM; first compound 0.000949 µM; stronger effect = lower value
# Text: A high-throughput screen of multi-cell type tumor spheroids was designed to identify active combinations of […] and targeted small molecules. Complex spheroids include a stromal component modeled by human endothelial cells (HUVEC) and fibroblasts modeled by human mesenchymal stem cells (MSCs). […] Compounds. […] If the clinical Cmax for an agent had not been determined, the highest concentration tested was 10 microM. […]
TEST READOUT: viability, T/C (%)

• CC(C)CC(NC(=O)C(Cc1ccccc1)NC(=O)c1cnccn1)B(O)O (centres undefined) + CN1CCN(c2cc(C(=O)Nc3cc4cc(-c5cnn(C)c5)ccc4cn3)ccn2)CC1 = 83.2
• C=CC(=O)Nc1cc(Nc2nccc(-c3cn(C)c4ccccc34)n2)c(OC)cc1N(C)CCN(C)C + CNC(=O)c1ccc(Nc2nc(OC3CCCC3)c3c(-c4ccc5nc(C)oc5c4)c[nH]c3n2)c(OC)c1 = 82.7
• CC(C)CC(NC(=O)C(Cc1ccccc1)NC(=O)c1cnccn1)B(O)O (centres undefined) + CNC(=O)c1ccc(Nc2nc(OC3CCCC3)c3c(-c4ccc5nc(C)oc5c4)c[nH]c3n2)c(OC)c1 = 81.6
• C=CC(=O)Nc1cc(Nc2nccc(-c3cn(C)c4ccccc34)n2)c(OC)cc1N(C)CCN(C)C + CN1CCN(c2cc(C(=O)Nc3cc4cc(-c5cnn(C)c5)ccc4cn3)ccn2)CC1 = 100

---

Entries and their viability, T/C
# Tested on: 379773-124-R-J2-PDC complex spheroids, viability % test/control
# TEST METHOD NOTES: Anticancer human tumor 379773-124-R-J2-PDC cell line growth inhibition [CLK];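 further: compound exposure lasted seven days before the viability readout; 100% = DMSO vehicle control wells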
# EXPERIMENTAL CONTEXT: second compound 0.1 µM; first compound 0.0316 µM; stronger effect = lower value
TEST READOUT: viability, T/C (%)

• CCN1CCN(Cc2ccc(Nc3ncc(F)c(-c4cc(F)c5nc(C)n(C(C)C)c5c4)n3)nc2)CC1 + CN1CCN(c2cc(C(=O)Nc3cc4cc(-c5cnn(C)c5)ccc4cn3)ccn2)CC1 = 76.9
• COc1cccc2c1C(=O)c1c(O)c3c(c(O)c1C2=O)CC(O)(C(=O)CO)CC3OC1CC(N)C(O)C(C)O1 (stereo not given) + CNC(=O)c1ccc(Nc2nc(OC3CCCC3)c3c(-c4ccc5nc(C)oc5c4)c[nH]c3n2)c(OC)c1 = 22.6
• COC1C=CCC(C)C(C)S(=O)(=O)NC(=O)c2ccc3c(c2)N(CC2CCC21)CC1(CCCc2cc(Cl)ccc21)CO3 (stereo not given) + CNC(=O)c1ccc(Nc2nc(OC3CCCC3)c3c(-c4ccc5nc(C)oc5c4)c[nH]c3n2)c(OC)c1 = 41.3
• O=C(c1cc(Cc2n[nH]c(=O)c3ccccc23)ccc1F)N1CCN(C(=O)C2CC2)CC1 + CN1CCN(c2cc(C(=O)Nc3cc4cc(-c5cnn(C)c5)ccc4cn3)ccn2)CC1 = 73.5
• C=C(F)C(=O)N1CCN(c2nc(OCC3CCCN3C)nc3c2CCN(c2cccc4cccc(Cl)c24)C3)CC1CC#N (stereo not given) + CNC(=O)c1ccc(Nc2nc(OC3CCCC3)c3c(-c4ccc5nc(C)oc5c4)c[nH]c3n2)c(OC)c1 = 35.7

---

# Test system: 379773-124-R-J2-PDC complex spheroids, viability % test/control
# TEST METHOD NOTES: Anticancer human tumor 379773-124-R-J2-PDC cell line growth inhibition [CLK];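 further: compound exposure lasted seven days before the viability readout; 100% = DMSO vehicle control wells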
# EXPERIMENTAL CONTEXT: second compound 0.316 µM; first compound 0.316 µM; stronger effect = lower value
# Text: A high-throughput screen of multi-cell type tumor spheroids was designed to identify active combinations of […] and targeted small molecules. Complex spheroids include a stromal component modeled by human endothelial cells (HUVEC) and fibroblasts modeled by human mesenchymal stem cells (MSCs). […] Compounds. […] If the clinical Cmax for an agent had not been determined, the highest concentration tested was 10 microM. […]
TEST READOUT: viability, T/C (%)

* COc1ccc([C@@H](O)c2cc(-c3ncnc4cc(N5CCOCC5)ccc34)c(F)cc2Cl)nn1 + CN1CCN(c2cc(C(=O)Nc3cc4cc(-c5cnn(C)c5)ccc4cn3)ccn2)CC1 | 16.6
* Nc1ccn(C2OC(CO)C(O)C2(F)F)c(=O)n1 (stereo not given) + CNC(=O)c1ccc(Nc2nc(OC3CCCC3)c3c(-c4ccc5nc(C)oc5c4)c[nH]c3n2)c(OC)c1 | 3.29
* CC(CO)NC(=O)c1cc(-c2ccc(Cl)cc2)nn(-c2cnn(C)c2)c1=O (stereo not given) + CN1CCN(c2cc(C(=O)Nc3cc4cc(-c5cnn(C)c5)ccc4cn3)ccn2)CC1 | 33.9
* C=C(F)C(=O)N1CCN(c2nc(OCC3CCCN3C)nc3c2CCN(c2cccc4cccc(Cl)c24)C3)CC1CC#N (stereo not given) + CNC(=O)c1ccc(Nc2nc(OC3CCCC3)c3c(-c4ccc5nc(C)oc5c4)c[nH]c3n2)c(OC)c1 | 32.4
* COc1c(OCCCN2CCOCC2)ccc2c3n(c(=NC(=O)c4cnc(N)nc4)nc12)CCN3 + CN1CCN(c2cc(C(=O)Nc3cc4cc(-c5cnn(C)c5)ccc4cn3)ccn2)CC1 | 3.33

---

Entries and their viability, T/C
# Tested on: 379773-124-R-J2-PDC complex spheroids, viability % test/control
# TEST METHOD NOTES: Anticancer human tumor 379773-124-R-J2-PDC cell line growth inhibition [CLK];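 further: compound exposure lasted seven days before the viability readout; 100% = DMSO vehicle control wells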
# EXPERIMENTAL CONTEXT: second compound 0.0316 µM; first compound 0.00949 µM; stronger effect = lower value
TEST READOUT: viability, T/C (%)

- NC(=O)C(=Cn1cnc(-c2cc(C(F)(F)F)cc(C(F)(F)F)c2)n1)c1cncnc1 + CNC(=O)c1ccc(Nc2nc(OC3CCCC3)c3c(-c4ccc5nc(C)oc5c4)c[nH]c3n2)c(OC)c1: 72.8
- C=CC(=O)Nc1cc(Nc2nccc(-c3cn(C)c4ccccc34)n2)c(OC)cc1N(C)CCN(C)C + CNC(=O)c1ccc(Nc2nc(OC3CCCC3)c3c(-c4ccc5nc(C)oc5c4)c[nH]c3n2)c(OC)c1: 78.9
- C=CC(=O)Nc1cc(Nc2nccc(-c3cn(C)c4ccccc34)n2)c(OC)cc1N(C)CCN(C)C + CN1CCN(c2cc(C(=O)Nc3cc4cc(-c5cnn(C)c5)ccc4cn3)ccn2)CC1: 99.4
